Value source: a melting point compilation (Tetko et al.; mined from patent text by program, amines drawn as free bases though some values may be those of a salt)

Reported melting point is given for each of the following compounds.
Metric: melting point

compound="Cc1c(N2CC3CN(Cc4ccccc4)CC3C2)nn2c(-c3ccnc(NC(=O)OC(C)(C)C)c3)c(-c3ccc(F)cc3)nc2c1C (stereo not given)" experimental_result="214 to 216 °C"
compound="COC(=O)C1CCC2C3CCC4CC(O)CCC4(C)C3C(NC(=O)OCC(Cl)(Cl)Cl)CC12C (stereo not given)" experimental_result="140 to 143 °C"
compound=C=CCc1c(Cl)nc(NC=O)nc1Cl experimental_result="85 to 86 °C"
compound=CC(=O)Nc1ccc(Cl)c2c1CN(C)C2 experimental_result="147 to 150 °C"
compound=CN(C)C(=O)N(C(=O)Nc1ccccc1)c1ccccc1 experimental_result="105 to 107 °C"
compound=CCOCn1c(C(F)(F)F)c(C#N)c2ccc(Cl)cc21 experimental_result="83 to 86 °C"
compound=O=c1[nH]c(=O)n2c3c1cnn3C(c1cccc(C(F)(F)F)c1)=CC2 experimental_result="260 to 262 °C"
compound=CN(C)C(=O)c1cn(C)c(=O)cc1Nc1ccc(I)cc1F experimental_result="106 to 111 °C"
compound=COC(=O)CN1CCN(CC(=O)OC)[C@@H](C(N)=O)[C@H]1C(N)=O experimental_result="172 to 173 °C"
compound=O=[N+]([O-])c1ccc(NC2CC2)nc1Nc1ccc2[nH]ncc2c1 experimental_result="237 to 240 °C"

----------
Reported melting point is given for each of the following molecules.
Metric: melting point

molecule=CC(=O)N1CCC(NC(=O)NC23CC4CC(CC(C4)C2)C3)CC1 experimental_result="202 to 204 °C"
molecule="COc1cccc(O[C@@H]2COc3ccc(OCc4ccccn4)cc3[C@@H]2O)c1 (relative stereo)" experimental_result="105 to 107 °C"
molecule="CC(C)(C)NCC(O)COc1ccc(C=O)cc1 (stereo not drawn)" experimental_result="123 to 126 °C"

----------
Metric: melting point

compound=Cn1cc(C2=CCC3(CC2)OCCO3)c2cc(C#N)ccc21 metric="melting point" experimental_result="65 to 67 °C"
compound=CCOC(=O)COc1cccc(-n2nc(-c3ccc(F)cc3)c3cccnc32)c1 metric="melting point" experimental_result="130 to 131 °C"
compound=Cc1cc2c(cc1C)n(C1CCNCC1)c(=O)n2C metric="melting point" experimental_result="171 to 172 °C"
compound=Cc1ccc2[nH]c(-c3ccccc3)c(CCN3CCCCC3)c2c1 metric="melting point" experimental_result="163 to 164 °C"
compound=COc1ccc(-c2nn(C(C)C)c(=O)c3ccsc23)cc1 metric="melting point" experimental_result="124 to 126 °C"
compound=C=CCn1c(N)nc(N2CCc3ccccc3CC2)c(C#N)c1=O metric="melting point" experimental_result="181 to 182 °C"
compound=CS(=O)(=O)c1ccc(-c2cc(=O)cc(CO)o2)cc1 metric="melting point" experimental_result="120 °C"
compound=CCOC(=O)c1cnc2cc([N+](=O)[O-])ccc2n1 metric="melting point" experimental_result="221 to 223 °C"
compound=Cc1cccc(-c2n[nH]cc2-c2ccc(F)c(-c3cnn(CCN4CCOCC4)c3)c2)n1 metric="melting point" experimental_result="124 °C"
compound="CC1CCOCC1C(C#N)=NO (stereo not drawn)" metric="melting point" experimental_result="94 to 96 °C"
compound=Nc1nc(-c2ccc(CCCCN3CCN(c4cccc5ccccc45)CC3)cc2)cs1 metric="melting point" experimental_result="242 to 245 °C"
compound=O=C(Cl)Cc1ccc([N+](=O)[O-])cc1 metric="melting point" experimental_result="47.5 to 49 °C"
compound="CC(Cc1ccc(Br)cc1)C(=O)O (stereo not drawn)" metric="melting point" experimental_result="69 to 70 °C"
